Assay: Pharmacokinetics of ERL and GEF in Wistar rats after four weeks consumption of water or flavoured water (plasma, UPLC-MS/MS, non-compartmental analysis)
Type: in vivo
Details: male, Wistar, rat, plasma, po, 20 mg/kg, rats, 20 mg/kg oral; drug alone (water); average; time 5 h; read-out: Conc*10 (ng/mL plasma)
PROPERTY_MEASURED: concentration at 5 h (ng/mL)

A = C#Cc1cccc(Nc2ncnc3cc(OCCOC)c(OCCOC)cc23)c1
B = COc1cc2ncnc(Nc3ccc(F)c(Cl)c3)c2cc1OCCCN1CCOCC1
Qu. Hey, between A and B which has a smaller measured concentration at 5 h? Your answer should be the label of the entry you select.
Ans. A
(A: 23.2 ng/mL, B: 148 ng/mL)

----------
Test: Pharmacokinetics of ERL and GEF in Wistar rats after four weeks consumption of water or flavoured water (plasma, UPLC-MS/MS, non-compartmental analysis)
Type: in vivo
Settings: male, Wistar, rat, plasma, oral, 20 mg/kg, PKSolver sheet; dose 20 mg/kg; +Pineapple; time 3 h; read-out: Conc
PROPERTY_MEASURED: concentration at 3 h (ng/mL)

1 = COc1cc2ncnc(Nc3ccc(F)c(Cl)c3)c2cc1OCCCN1CCOCC1
2 = C#Cc1cccc(Nc2ncnc3cc(OCCOC)c(OCCOC)cc23)c1
Qu. Hey, between 1 and 2 which has a smaller measured concentration at 3 h? Your answer should be the label of the entry you select.
Ans. 2
(2: 45.3 ng/mL, 1: 259 ng/mL)

----------
Experiment: Pharmacokinetics of ERL and GEF in Wistar rats after four weeks consumption of water or flavoured water (plasma, UPLC-MS/MS, non-compartmental analysis)
Format: in vivo
Details: male, Wistar, rat, plasma, po, 20 mg/kg, rats, 20 mg/kg oral; +Pineapple FW; average; time 2 h; read-out: Conc*10 (ng/mL plasma)
PROPERTY_MEASURED: concentration at 2 h (ng/mL)

A = C#Cc1cccc(Nc2ncnc3cc(OCCOC)c(OCCOC)cc23)c1 [ERL, Erlotinib]
B = COc1cc2ncnc(Nc3ccc(F)c(Cl)c3)c2cc1OCCCN1CCOCC1 [GEF, Gefitinib]
Qu. From the recorded data, which exceeds the other in concentration at 2 h: A or B ? Your answer should be the label of the entry you select.
Ans. B
(B: 445 ng/mL, A: 120 ng/mL)

----------
Test: Pharmacokinetics of ERL and GEF in Wistar rats after four weeks consumption of water or flavoured water (plasma, UPLC-MS/MS, non-compartmental analysis)
Format: in vivo
Conditions: male, Wistar, rat, plasma, po, 20 mg/kg, rats, 20 mg/kg oral; +Peach FW; average; time 0.5 h; read-out: Conc*10 (ng/mL plasma)
PROPERTY_MEASURED: concentration at 0.5 h (ng/mL)

A = COc1cc2ncnc(Nc3ccc(F)c(Cl)c3)c2cc1OCCCN1CCOCC1
B = C#Cc1cccc(Nc2ncnc3cc(OCCOC)c(OCCOC)cc23)c1
Qu. Hey, between A and B which has a smaller measured concentration at 0.5 h? Your answer should be the label of the entry you select.
Ans. B

----------
Test: Pharmacokinetics of ERL and GEF in Wistar rats after four weeks consumption of water or flavoured water (plasma, UPLC-MS/MS, non-compartmental analysis)
Assay type: in vivo
Conditions: male, Wistar, rat, plasma, po, 20 mg/kg, rats, 20 mg/kg oral; four weeks berry FW; n = 5, mean (SD); read-out: t½ (converted)
PROPERTY_MEASURED: half-life (h)
Answer format: numeric, h implied, no suffix.

Qu. // lookup half-life for `COc1cc2ncnc(Nc3ccc(F)c(Cl)c3)c2cc1OCCCN1CCOCC1`
Ans. 17.7
